- test-system: NAD-dependent protein deacetylase sirtuin-2 (Homo sapiens, UniProt Q8IXJ6)
- Sequence (Q8IXJ6 whole entry): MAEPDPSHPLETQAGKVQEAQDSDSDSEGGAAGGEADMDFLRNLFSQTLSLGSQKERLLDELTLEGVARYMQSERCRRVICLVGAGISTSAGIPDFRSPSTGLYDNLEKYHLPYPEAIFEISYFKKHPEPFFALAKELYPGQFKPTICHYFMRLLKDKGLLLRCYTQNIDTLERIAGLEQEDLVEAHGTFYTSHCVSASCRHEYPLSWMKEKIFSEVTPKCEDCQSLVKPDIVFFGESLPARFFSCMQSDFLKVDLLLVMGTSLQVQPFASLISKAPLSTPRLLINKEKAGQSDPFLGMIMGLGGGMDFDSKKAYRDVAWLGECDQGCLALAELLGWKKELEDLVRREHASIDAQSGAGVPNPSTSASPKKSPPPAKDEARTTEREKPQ
- experiment-notes: Inhibition of recombinant human His6-tagged SIRT2 using H2N-HK-[Nepsilon-acetyl-lysine]-LM-COOH as substrate incubated for 12 mins in presence of beta-NAD+ by HPLC based assay
property: IC50 (nM)

Solved entries:
CC(=S)NCCCC[C@@H]1NC(=O)CNCCC(=O)NCCCC[C@@H](C(N)=O)NC1=O; 24300
CC(=S)NCCCC[C@@H]1NC(=O)[C@H](Cc2ccc3ccccc3c2)NC(=O)CCCCCCC(=O)NCCCC[C@@H](C(N)=O)NC1=O; 1400
CC(=S)NCCCC[C@@H]1NC(=O)[C@H](Cc2csc3ccccc23)NC(=O)CCCCCCC(=O)NCC[C@@H](C(N)=O)NC1=O; 1160

P: CC(=S)NCCCC[C@@H]1NC(=O)[C@H](Cc2ccc3ccccc3c2)NC(=O)CCCCCCC(=O)NCCC[C@@H](C(N)=O)NC1=O
Q: CCCC[C@@H]1NC(=O)CCCCCCC(=O)NC[C@@H](C(N)=O)NC(=O)[C@H](CCCCNC(C)=S)NC1=O
R: CC(=S)NCCCC[C@@H]1NC(=O)CNC(=O)CCCCCCC(=O)NCCCC[C@@H](C(N)=O)NC1=O
S: CC(=S)NCCCC[C@@H]1NC(=O)[C@H](Cc2csc3ccccc23)NC(=O)CCCCCCC(=O)NCCC[C@@H](C(N)=O)NC1=O
Rank by IC50 (largest to smallest). Note for the reader: the ranking is given by listing the labels in the order requested.
R, P, S, Q
(R: 3900 nM, P: 1200 nM, S: 480 nM, Q: 180 nM)

1: CC(=S)NCCCC[C@@H]1NC(=O)[C@H](Cc2ccc3ccccc3c2)NC(=O)CCCCCCC(=O)NC[C@@H](C(N)=O)NC1=O
2: CCCC[C@@H]1NC(=O)CCCCCCC(=O)NCCCC[C@@H](C(N)=O)NC(=O)[C@H](CCCCNC(C)=S)NC1=O
3: CC(=S)NCCCC[C@@H]1NC(=O)[C@H](Cc2csc3ccccc23)NC(=O)CCCCCCC(=O)NCCCC[C@@H](C(N)=O)NC1=O
4: CC(=S)NCCCC[C@@H]1NC(=O)[C@H](Cc2ccc3ccccc3c2)NC(=O)CCCCCCC(=O)NCC[C@@H](C(N)=O)NC1=O
5: CCCC[C@@H]1NC(=O)CCCCCCC(=O)NCC[C@@H](C(N)=O)NC(=O)[C@H](CCCCNC(C)=S)NC1=O
Please give the order of these compounds when sorted by IC50, largest value leading. Answer format: list of labels, ordered as asked.
4, 1, 3, 5, 2

P: CCCC[C@@H]1NC(=O)CCCCCCC(=O)NCCC[C@@H](C(N)=O)NC(=O)[C@H](CCCCNC(C)=S)NC1=O
Q: CC(=S)NCCCC[C@@H]1NC(=O)[C@H](Cc2csc3ccccc23)NC(=O)CCCCCCC(=O)NC[C@@H](C(N)=O)NC1=O
R: CC(C(=O)Nc1cccc(/N=C/c2c(O)ccc3ccccc23)c1)c1ccccc1 (stereo not given) [SALERMIDE]
List the 3 entries from lowest IC50 to highest IC50 value. Arrange the labels as the request states and list them.
P, Q, R
(P: 220 nM, Q: 4240 nM, R: 20300 nM)

These entries and their values trace back to ChEMBL document CHEMBL3860093.
